system: influenza A H1N1 subtype; experiment: Antiviral assay, inhibition of virus-induced cytopathic effect, MDCK cells; assay type: cell-based; settings: virus p, influenza A H1N1 subtype, MDCK cells
Property label: EC50
Please state the value followed by its unit.

Noted for CC(N)C12CC3CC(CC(C3)C1)C2 (centres unmarked) [Rimantidin] : its EC50 reads 20 µM

Next:
Noted for NC12CC3CC(CC(C3)C1)C2 [Amantidin] : its EC50 reads 45 µM

###

system: para-influenza-3 virus; assay: organism not typed; type: cell-based; conditions: Vero, virus i, Vero cells
Property label: pEC50
Scale: pEC50 equals -log10([C]), with [C] in mol/L.

Noted for NC(=O)c1ncn([C@@H]2O[C@H](CO)[C@@H](O)[C@H]2O)n1 [Ribavirin] : its pEC50 reads 4.02

###

system: punta toro virus; experiment: microbe, parasite or virus in culture; assay type: cell-based; conditions: Vero, virus m, Vero cells
Property label: pEC50
Scale: pEC50 equals -log10([C]), with [C] in mol/L.

Noted for `NC(=O)c1ncn([C@@H]2O[C@H](CO)[C@@H](O)[C@H]2O)n1` : its pEC50 reads 4.30

Reference source for all entries: paper PMC7127469
